# Study Target: T1, native human ApoC3 (human, UniProt P02656 21-99)
# T1 construct: also called nhuApoC3; native huApoC3
# T1 sequence (P02656 21-99): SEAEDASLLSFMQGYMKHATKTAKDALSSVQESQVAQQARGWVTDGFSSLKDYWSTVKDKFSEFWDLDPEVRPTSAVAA
# Test Description: SPR, ApoC3 over captured IgG1, pH 7.4
Measurement Type: koff (s⁻¹)
Reply with just the number (in s⁻¹).

1. mAb4 (antibody, IgG1, V domains shown, Produced as full length IgG1 (kappa) in ExpiCHO-S cells; also called humanized anti-ApoC3 antibody mAb4) VH: QLVESGGGLVQPGGSLRLSCAASGFTFGTYSMRWVRQAPGKGLEWVSSIHTEGGGTAYRDSVKGRFTISRDNAKNTLYLQMNSLRAEDTAIYYCVIAGYSDWGQGTLVTVSS VL: DIVMTQSPLSLPVTPGESASISCKTSQGLVHSDGKTYFYWFLQKPGQSPQQLIYQVSNRASGVPDRFSGSGSGTDFTLKISRVKAEDAGVYYCAHGTYYPHTFGQGTRLEIK    0.00565
2. mAb18 (antibody, IgG1, V domains shown, Produced as full length IgG1 (kappa) in ExpiCHO-S cells; also called humanized anti-ApoC3 antibody mAb18) VH: QLVESGGGLVQPGGSLRLSCAASGFTFSTYSMRWVRQAPGKGLEWVSSIHTEAGGTAYRDSVKGRFTISRDNAKNTLYLQMNNLRAEDTAVYYCVIAGYSDWGQGTLVTVSS VL: DIVMTQSPLSLPVTPGEPASISCKTSQGLVHSGGKTYFYWFLQKPGQSPQQLIYQVSNRASGVPDRFTGSGSGTDFTLKISRVEAEDAGVYYCAHGTYYPHTFGQGTRLEIK    0.0539
3. mAb3 (antibody, IgG1, V domains shown, Produced as full length IgG1 (kappa) in ExpiCHO-S cells; also called humanized anti-ApoC3 antibody mAb3) VH: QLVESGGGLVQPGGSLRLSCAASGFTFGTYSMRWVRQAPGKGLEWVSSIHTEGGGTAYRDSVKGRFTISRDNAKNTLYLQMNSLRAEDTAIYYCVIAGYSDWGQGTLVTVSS VL: DIVMTQSPLSLPVTPGESASISCKTSQGLVHSDGKTYFYWFLQKPGQSPQQLIYQVSNRASGVPDRFTGSGSGTDFTLKISRVKAEDAGVYYCAHGTYYPHTFGQGTRLEIK    0.00582

Problem: Consider the binder 5E5VH5_VL8 human IgG1 (antibody, V domains shown, Tested as human IgG1; the tested lot is not tied to them in words) VH: QLQLVESGGGLVQPGGSLRLSCAASGFTFGTYSMRWVRQVPRKALEWVSSIHTDGGGTAYRDSVKGRFTISRDNAKNTLYLQMNNLKPEDTAIYYCVIAGYSDWGQGTQVTVSS VL: ATMLTQSPGSLSVVPGESASISCKTSQGLVHSDGKTYFYWFLQKPGQSPQQLIYQVSNRASGVPDRFTGSGSGTDFTLKISGVKAEDAGVYYCAHGTYYPHTFGSGTRLEIK . State its measured koff.
Result: 0.0127

Problem: Consider the binder mAb12 (antibody, IgG1, V domains shown, Produced as full length IgG1 (kappa) in ExpiCHO-S cells; also called humanized anti-ApoC3 antibody mAb12) VH: QLVESGGGLVQPGGSLRLSCAASGFTFSTYSMRWVRQVPGKGLEWVSSIHTDAGGTAYRDSVKGRFTISRDNAKNTLYLQMNSLRPEDTAIYYCVIAGYSDWGQGTLVTVSS VL: DIVMTQSPLSLSVTPGEPASISCKTSQGLVHSDGKTYFYWFLQKPGQSPQQLIYQVSNRASGVPDRFTGSGSGTDFTLKISRVKAEDVGVYYCAHGTYYPHTFGQGTRLEIK . State its measured koff.
Result: 0.00655

Problem: Consider the binder mAb15 (antibody, IgG1, V domains shown, Produced as full length IgG1 (kappa) in ExpiCHO-S cells; also called humanized anti-ApoC3 antibody mAb15) VH: QLVESGGGLVQPGGSLRLSCAASGFTFGTYSMRWVRQAPGKGLEWVSSIHTEAGGTAYRDSVKGRFTISRDNAKNTLYLQMNNLKAEDTAIYYCVIAGYSDWGQGTQVTVSS VL: DIVMTQSPLSLPVTPGESASISCKTSQGLVHSGGKTYFYWFLQKPGQSPQQLIYQVSNRASGVPDRFTGSGSGTDFTLKISRVEAEDAGVYYCAQGTYYPHTFGSGTRLEIK . State its measured koff.
Result: 0.00378

Problem: Consider the binder mAb10 (antibody, IgG1, V domains shown, Produced as full length IgG1 (kappa) in ExpiCHO-S cells; also called humanized anti-ApoC3 antibody mAb10) VH: QLVESGGGLVQPGGSLRLSCAASGFTFSTYSMRWVRQVPGKGLEWVSSIHTEGGGTAYRDSVKGRFTISRDNAKNTLYLQMNNLRAEDTAVYYCVIAGYSDWGQGTLVTVSS VL: DIVMTQSPLSLSVVPGEPASISCKTSQGLVHSDGKTYFYWFLQKPGQSPQQLIYQVSNRASGVPDRFSGSGSGTDFTLKISRVEAEDVGVYYCAHGTYYPHTFGQGTRLEIK . State its measured koff.
Result: 0.00601

Problem: Consider the binder mAb19 (antibody, IgG1, V domains shown, Produced as full length IgG1 (kappa) in ExpiCHO-S cells; also called humanized anti-ApoC3 antibody mAb19) VH: QLVESGGGLVQPGGSLRLSCAASGFTFSTYSMRWVRQAPGKGLEWVSSIHTDAGGTAYRDSVKGRFTISRDNAKNTLYLQMNNLRPEDTAVYYCVIAGYSDWGQGTLVTVSS VL: DIVMTQSPGSLSVTPGEPASISCKTSQGLVHSGGKTYFYWFLQKPGQSPQQLIYQVSNRASGVPDRFTGSGSGTDFTLKISGVEAEDAGVYYCAQGTYYPHTFGQGTRLEIK . State its measured koff.
Result: 0.00463

Problem: Consider the binder mAb17 (antibody, IgG1, V domains shown, Produced as full length IgG1 (kappa) in ExpiCHO-S cells; also called humanized anti-ApoC3 antibody mAb17) VH: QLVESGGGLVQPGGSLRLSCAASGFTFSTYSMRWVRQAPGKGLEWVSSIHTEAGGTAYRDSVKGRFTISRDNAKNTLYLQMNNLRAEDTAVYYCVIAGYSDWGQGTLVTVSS VL: DIVMTQSPLSLPVTPGEPASISCKTSQGLVHSGGKTYFYWFLQKPGQSPQQLIYQVSNRASGVPDRFTGSGSGTDFTLKISRVEAEDAGVYYCAQGTYYPHTFGQGTRLEIK . State its measured koff.
Result: 0.00616
